Target: α4β1 (R&D Systems #5668-A4) (UniProt P13612)
Test: competition ELISA vs VCAM-1
Bridge positions count the residues as written; N and C are the ends. Square brackets hold non-standard residues; d marks the D form. 1Nal = N[C@@H](Cc1cccc2ccccc12)C(=O)O; 2Nal = N[C@@H](Cc1ccc2ccccc2c1)C(=O)O; NMeR = CN[C@@H](CCCNC(=N)N)C(=O)O; Tic = O=C(O)[C@@H]1Cc2ccccc2CN1; β3hE = N[C@@H](CCC(=O)O)CC(=O)O; NMeK = CN[C@@H](CCCCN)C(=O)O; Pen = CC(C)(S)[C@H](N)C(=O)O; dNMeK = CN[C@H](CCCCN)C(=O)O
I'd be grateful if you could share measured IC50 for these entries.

Task item: Entry Ac-[Pen][NMeR]SDTL[Pen][2Nal]E[dK]-NH2 (disulfide 1-7; also: dimer via DIG, attachment site not given here) [Peptide 212] has what IC50?
Reply: 70 nM

Task item: Okay, and Ac-[Pen][NMeR]SDTL[Pen][1Nal]E[dNMeK]-NH2 (disulfide 1-7; SMILES CC(=O)N[C@@H]1C(=O)N(C)[C@@H](CCCNC(=N)N)C(=O)N[C@@H](CO)C(=O)N[C@@H](CC(=O)O)C(=O)N[C@@H]([C@@H](C)O)C(=O)N[C@@H](CC(C)C)C(=O)N[C@H](C(=O)N[C@@H](Cc2cccc3ccccc23)C(=O)N[C@@H](CCC(=O)O)C(=O)N(C)[C@H](CCCCN)C(N)=O)C(C)(C)SSC1(C)C) [SEQ ID NO: 18] ?
Reply: > 500 nM

Task item: Okay, and Ac-[Pen][NMeR]SDTL[Pen][1Nal]E[dK]-NH2 (disulfide 1-7; also: dimer via DIG) [SEQ ID NO: 24] ?
Reply: > 100 nM

Task item: Okay, and Ac-[Pen][NMeR]SDTL[Pen][Tic][β3hE]-NH2 (disulfide 1-7 (inferred)) [SEQ ID NO: 154] ?
Reply: > 1000 nM

Task item: Okay, and Ac-[Pen][NMeR]SDTL[Pen][1Nal][dE][dK]-NH2 (disulfide 1-7; also: dimer via DIG) [SEQ ID NO: 32] ?
Reply: > 100 nM

Task item: Okay, and Ac-[Pen][NMeR]SDTL[Pen][1Nal][β3hE][NMeK]-NH2 (disulfide 1-7 (inferred); also: dimer via DIG linker) [SEQ ID NO: 142] ?
Reply: > 500 nM

Task item: Okay, and Ac-[Pen][NMeR]SDTL[Pen][1Nal]E[dNMeK]-NH2 (disulfide 1-7; also: dimer via DIG) [SEQ ID NO: 44] ?
Reply: > 100 nM

Task item: Okay, and Ac-[Pen][NMeR]SDTL[Pen][2Nal]E[dNMeK]-NH2 (disulfide 1-7; also: dimer via DIG) [SEQ ID NO: 41] ?
Reply: > 100 nM
